The values you see were collected from ChEMBL document CHEMBL5724914.

# cond: human gut metagenome, 24 h, 2 µM; note: call rule not given here

compound	Bacterial Biotransformation
CCN(CC)CCOC(=O)C(Cc1cccc2ccccc12)CC1CCCO1.O=C(O)C(=O)O (stereo unspecified) [NAFRONYL OXALATE]	Compound metabolized
CNCCC(Oc1ccc(C(F)(F)F)cc1)c1ccccc1 (stereo unspecified)	Compound NOT metabolized
CCOC(=O)[C@H](CCc1ccccc1)N[C@H]1CCc2ccccc2N(CC(=O)O)C1=O	Compound metabolized
NS(=O)(=O)c1cc2c(cc1Cl)N=C(CSCc1ccccc1)NS2(=O)=O [BENZTHIAZIDE]	Compound NOT metabolized
COC(=O)C1=C(C)NC(C)=C(C(=O)OC(C)C)C1c1cccc2nonc12 (stereo unspecified)	Compound metabolized
CCC(COC(=O)c1cc(OC)c(OC)c(OC)c1)(c1ccccc1)N(C)C.O=C(O)/C=C\C(=O)O (stereo unspecified)	Compound metabolized
CCCC(=O)Nc1ccc(OCC(O)CNC(C)C)c(C(C)=O)c1 (stereo unspecified)	Compound metabolized
CCN(CC)CCNC(=O)c1cc(Cl)c(N)cc1OC [METOCLOPRAMIDE]	Compound NOT metabolized
CCOc1ccc(NC(C)=O)cc1	Compound NOT metabolized
CN1CCOC(c2ccccc2)c2ccccc2C1 (stereo unspecified)	Compound NOT metabolized
CN1C[C@H](C(=O)N[C@]2(C)O[C@@]3(O)[C@@H]4CCCN4C(=O)[C@H](Cc4ccccc4)N3C2=O)C=C2c3cccc4[nH]cc(c34)C[C@H]21.CN1C[C@H](C(=O)N[C@]2(C)O[C@@]3(O)[C@@H]4CCCN4C(=O)[C@H](Cc4ccccc4)N3C2=O)C=C2c3cccc4[nH]cc(c34)C[C@H]21.O=C(O)C(O)C(O)C(=O)O [ERGOTAMINE TARTRATE]	Compound metabolized
CCN(CC)CCOCCOC(=O)C1(c2ccccc2)CCCC1.O=C(O)CC(O)(CC(=O)O)C(=O)O [CARBETAPENTANE CITRATE]	Compound metabolized
CCN(CC)CCNC(C(=O)OCCC(C)C)c1ccccc1.Cl.Cl (stereo unspecified)	Compound metabolized
CC(O)(CS(=O)(=O)c1ccc(F)cc1)C(=O)Nc1ccc(C#N)c(C(F)(F)F)c1 (stereo unspecified) [BICALUTAMIDE]	Compound NOT metabolized
CN1CCN(CC/C=C2/c3ccccc3Sc3ccc(S(=O)(=O)N(C)C)cc32)CC1	Compound metabolized
Cc1ccc(S(=O)(=O)NC(=O)NN2CC3CCCC3C2)cc1 (stereo unspecified) [GLICLAZIDE]	Compound metabolized

---

# protocol.details: The drug is tested on Z-018 corresponding to pig gut metagenome with ENA study accession number: PRJEB37062 and ENA sample accession number: ERS12561817 for biotransformation under anaerobic condition. The drug concentrations were measured over 9 timepoints collected between 0 and 24 hours of incubation by liquid-chromatography-coupled mass spectrometry (LC–MS)
# cond: 2 µM
Where a SMILES comes first, the peptide text is derived from it. [ ]: non-standard residue; d: D form. pGlu = O=C1CC[C@@H](C(=O)O)N1; Thz = O=C(O)[C@@H]1CSCN1

compound	Bacterial Biotransformation
CCOC(=O)[C@H](CCc1ccccc1)N[C@H]1CCc2ccccc2N(CC(=O)O)C1=O [BENAZEPRIL]	Compound metabolized
Fc1ccc([C@@H]2CCNC[C@H]2COc2ccc3c(c2)OCO3)cc1 [PAROXETINE]	Compound NOT metabolized
Cc1cn([C@H]2C[C@H](N=[N+]=[N-])[C@@H](CO)O2)c(=O)[nH]c1=O [ZIDOVUDINE]	Compound NOT metabolized
Cc1nc(-c2ccc(OCC(C)C)c(C#N)c2)sc1C(=O)O [FEBUXOSTAT]	Compound metabolized
Cc1nc2n(c(=O)c1CCN1CCC(c3noc4cc(F)ccc34)CC1)CCCC2O (stereo unspecified) [PALIPERIDONE]	Compound NOT metabolized
OC(CCN1CCCCC1)(c1ccccc1)C1CCCCC1 (stereo unspecified) [TRIHEXYPHENIDYL]	Compound metabolized
Cc1ccc(S(=O)(=O)NC(=O)NN2CCCCCC2)cc1 [TOLAZAMIDE]	Compound metabolized
CCN(CC)CCOC(=O)C(Cc1cccc2ccccc12)CC1CCCO1.O=C(O)C(=O)O (stereo unspecified) [NAFRONYL OXALATE]	Compound metabolized
COc1ccccc1OCC(O)COC(N)=O (stereo unspecified) [METHOCARBAMOL]	Compound NOT metabolized
O=C1CC[C@@H](C(=O)N2CSC[C@H]2C(=O)O)N1 [PIDOTIMOD] ([pGlu]-[Thz]-OH)	Compound metabolized
Cc1ccccc1N1C(=O)c2cc(S(N)(=O)=O)c(Cl)cc2NC1C (stereo unspecified) [METOLAZONE]	Compound NOT metabolized
